Target or test system: Indoleamine 2,3-dioxygenase 2 (Homo sapiens) (UniProt Q6ZQW0)
Sequence (whole entry): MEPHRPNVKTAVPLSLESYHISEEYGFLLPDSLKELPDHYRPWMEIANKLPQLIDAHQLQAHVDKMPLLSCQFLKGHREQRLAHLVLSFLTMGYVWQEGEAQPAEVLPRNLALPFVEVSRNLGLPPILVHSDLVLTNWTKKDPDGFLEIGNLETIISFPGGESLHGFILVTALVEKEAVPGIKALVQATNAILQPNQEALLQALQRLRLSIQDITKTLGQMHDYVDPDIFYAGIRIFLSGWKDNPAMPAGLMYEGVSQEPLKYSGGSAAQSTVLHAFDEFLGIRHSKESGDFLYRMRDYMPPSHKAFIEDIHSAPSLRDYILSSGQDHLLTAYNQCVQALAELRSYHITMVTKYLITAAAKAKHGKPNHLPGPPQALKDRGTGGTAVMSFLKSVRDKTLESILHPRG
Protocol notes: Inhibition of recombinant human IDO2 in HeLa cells at 100 nM relative to control
Type: cell-based
Answer each item with its documented inhibition.
Response body: numeric value in %, unit text excluded.

What is its inhibition for Indoleamine 2,3-dioxygenase 2 (Homo sapiens) (UniProt Q6ZQW0)? Entry: "O=C(NCc1cn(CCNc2nonc2/C(=N/O)NCc2cccc(Br)c2)nn1)c1ccccn1"
41

Observed inhibition on Indoleamine 2,3-dioxygenase 2 (Homo sapiens) (UniProt Q6ZQW0) for "O=C(NCc1cn(CCNc2nonc2/C(=N/O)Nc2ccc(F)c(Br)c2)nn1)c1ccccn1" , please.
39

Missing value: inhibition, Indoleamine 2,3-dioxygenase 2 (Homo sapiens) (UniProt Q6ZQW0), entry "O=C(NCc1cn(CCNc2nonc2/C(=N/O)Nc2ccc(F)c(C(F)(F)F)c2)nn1)c1ccccn1" . Fill in?
6

Record lookup: for Indoleamine 2,3-dioxygenase 2 (Homo sapiens) (UniProt Q6ZQW0), what inhibition belongs to "O=C(NCc1cn(CCNc2nonc2/C(=N/O)Nc2cc(Br)cc(Br)c2)nn1)c1ccccn1" ?
15

Request - read-out inhibition | tested on Indoleamine 2,3-dioxygenase 2 (Homo sapiens) (UniProt Q6ZQW0) | compound "Cc1ccc(Br)cc1N/C(=N\O)c1nonc1NCCn1cc(CNC(=O)c2ccccn2)nn1"
15

Return inhibition measured with Indoleamine 2,3-dioxygenase 2 (Homo sapiens) (UniProt Q6ZQW0) given this compound: "Cc1cc(Br)cc(N/C(=N\O)c2nonc2NCCn2cc(CNC(=O)c3ccccn3)nn2)c1"
14

----------
Target or test system: Indoleamine 2,3-dioxygenase 2 (Homo sapiens) (UniProt Q6ZQW0)
Protocol notes: Inhibition of recombinant human IDO2 in HeLa cells at […] relative to control
Type: cell-based
Assign inhibition to each entry below.
// units = %; emit number, no label

Would you mind telling me what inhibition value was observed for "O=C(NCc1cn(CCNc2nonc2/C(=N/O)Nc2cc(Br)cc(Br)c2)nn1)c1ccccn1" ?
52

Bench note: what inhibition did "O=C(NCc1cn(CCNc2nonc2/C(=N/O)Nc2ccc(F)c(Br)c2)nn1)c1ccc[nH]1" show?
86

For the molecule "O=C(NCc1cn(CCNc2nonc2/C(=N/O)NCc2ccc(F)c(Br)c2)nn1)c1ccccn1" , what inhibition is on record?
5

Report inhibition for "O=C(NCc1cn(CCNc2nonc2/C(=N/O)NCc2ccc(Br)cc2)nn1)c1ccc[nH]1" please.
0

----------
Give pIC50 for every item shown.
Target or test system: Indoleamine 2,3-dioxygenase 2 (Homo sapiens, UniProt Q6ZQW0)
Protocol notes: Inhibition of human IDO2
Value format note: pIC50 is -log10 of concentration (mol/L); just state the number.

Record request: pIC50 value, item "O=C(NCc1cn(CCNc2nonc2/C(=N/O)NCc2cccc(Br)c2)nn1)c1ccccn1"
6.95

Any idea what pIC50 was measured for "O=C(NCc1cn(CCNc2nonc2/C(=N/O)Nc2ccc(F)c(Br)c2)nn1)c1ccccn1" ?
6.41

Which pIC50 reading was recorded for the compound "O=C(NCc1cn(CCNc2nonc2/C(=N/O)Nc2ccc(F)c(Br)c2)nn1)c1ccc[nH]1" ?
6.87

Reported pIC50 for "O=C(NCc1cn(CCNc2nonc2/C(=N/O)Nc2cccc(Br)c2)nn1)c1ccccn1" : what is it?
6.24
